# measured target: Histone deacetylase 1 (Homo sapiens, UniProt Q13547)
# Sequence (Q13547 whole entry): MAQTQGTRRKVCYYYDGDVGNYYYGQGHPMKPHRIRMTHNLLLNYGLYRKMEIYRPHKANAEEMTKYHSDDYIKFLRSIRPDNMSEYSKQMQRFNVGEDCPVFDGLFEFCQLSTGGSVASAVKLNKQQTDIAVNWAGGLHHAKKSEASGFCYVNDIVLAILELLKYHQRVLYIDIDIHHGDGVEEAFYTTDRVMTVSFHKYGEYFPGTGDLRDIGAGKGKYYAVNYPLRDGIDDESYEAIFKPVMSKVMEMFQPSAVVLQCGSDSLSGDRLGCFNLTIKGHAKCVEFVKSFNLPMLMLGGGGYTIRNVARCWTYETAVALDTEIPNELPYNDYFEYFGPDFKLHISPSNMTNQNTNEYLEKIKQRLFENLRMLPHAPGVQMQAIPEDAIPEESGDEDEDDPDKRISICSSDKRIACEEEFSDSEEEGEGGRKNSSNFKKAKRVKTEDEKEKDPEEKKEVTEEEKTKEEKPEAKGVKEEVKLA
# assay details: Inhibition of recombinant full length C-terminal FLAG/His-tagged human HDAC1 expressed in baculovirus infected Sf9 cells using Z-Lys(Ac)-AMC as substrate incubated for 90 mins followed by trypsin addition and measured after 30 mins by fluorescence based assay
parameter: IC50 (µM)
Numeric only. Scale: µM

input smiles | parameter | unit of measurement | reported result
COc1cc(OC)cc(C(=O)N(CCC(=O)NCc2ccccc2)Cc2ccc(C(=O)NO)cc2)c1 | IC50 | µM | 0.147
Cc1ccc(NC(=O)CCN(Cc2ccc(C(=O)NO)cc2)C(=O)c2ccccc2)cc1 | IC50 | µM | 0.0275

Observed IC50 on Histone deacetylase 1 (Homo sapiens, UniProt Q13547) for O=C(NO)c1ccc(CC(=O)N(CCO)c2ccccc2)cc1 , please.
2.1

Cited source: ChEMBL document CHEMBL4334421
